tested.on: feline FcRn complex (FcRn-α subunit and β-microglobulin), biotin labeled (feline)
test.description: SPR, pH 6
assay.endpoint: pKd
In textbook form, pKd equals minus log to base ten of the concentration in mol/L.

What measured pKd goes with feline IgG1a S434W (antibody, part only; not given: Variable domains, not shown: another chain or arm of the molecule) constant: ASTTAPSVFPLAPSCGTTSGATVALACLVLGYFPEPVTVSWNSGALTSGVHTFPAVLQASGLYSLSSMVTVPSSRWLSDTFTCNVAHPPSNTKVDKTVRKTDHPPGPKPCDCPKCPPPEMLGGPSIFIFPPKPKDTLSISRTPEVTCLVVDLGPDDSDVQITWFVDNTQVYTAKTSPREEQFNSTYRVVSVLPILHQDWLKGKEFKCKVNSKSLPSPIERTISKAKGQPHEPQVYVLPPAQEELSRNKVSVTCLIKSFHPPDIAVEWEITGQPEPENNYRTTPPQLDSDGTYFVYSKLSVDRSHWQRGNTYTCSVSHEALHWHHTQKSLTQSPGK ?
9.11
